Here the recorded IC50 at 24 h is given for each entry.
protocol-notes: Cytotoxicity against human IMR-32 cells assessed as reduction in cell viability measured after 24 hrs by celltiter-glo-based assay
Format: toxicity
parameter-measured: IC50 at 24 h

1. O=C(O)CCCCCN[C@H]1CS(=O)(=O)C[C@@H]1S(=O)(=O)c1ccc(Cl)c(Cl)c1; > 20 µM
2. O=C(O)CCCN[C@H]1CS(=O)(=O)C[C@@H]1S(=O)(=O)c1ccc(Cl)c(Cl)c1; > 20 µM
3. CC(C)CN[C@H]1CS(=O)(=O)C[C@@H]1C(=O)Nc1ccc(Cl)c(Cl)c1; > 20 µM
